experiment: Inhibition of BRM/BRG1 mutant in human RERF-LC-A1 cells assessed as reduction in KRT80 gene expression after 24 hrs by luciferase reporter gene assay; format: cell-based
pEC50: −log10 of the molar value.
Quantity Name: pEC50

{"columns": ["Structure String", "Quantity Name", "Reported Value"],
 "data": [
  ["O=C(Nc1cc(C(F)F)ns1)Nc1cc(F)ncc1CO", "pEC50", 8.00]
]}

* * *

target: SWI/SNF-related matrix-associated actin-dependent regulator of chromatin subfamily A member 2 (Homo sapiens); assay: Binding affinity to N-terminal MBP-fused human BRM RecA domain (705 to 960 residues) expressed in Escherichia coli BL21 Star (DE3) by ITC method

{"columns": ["Structure String", "Kd / nM"],
 "data": [
  ["O=C(Nc1ccnc(Cl)c1)Nc1cc(C(F)F)ns1", 13]
]}

* * *

target: SWI/SNF-related matrix-associated actin-dependent regulator of chromatin subfamily A member 2 (Homo sapiens, UniProt P51531, E852Q); assay: Binding affinity to N-terminal MBP-fused human BRM RecA domain E852Q mutant expressed in Escherichia coli BL21 Star (DE3) by ITC method
Sequence (P51531 whole entry E852Q, the tested form may be a part): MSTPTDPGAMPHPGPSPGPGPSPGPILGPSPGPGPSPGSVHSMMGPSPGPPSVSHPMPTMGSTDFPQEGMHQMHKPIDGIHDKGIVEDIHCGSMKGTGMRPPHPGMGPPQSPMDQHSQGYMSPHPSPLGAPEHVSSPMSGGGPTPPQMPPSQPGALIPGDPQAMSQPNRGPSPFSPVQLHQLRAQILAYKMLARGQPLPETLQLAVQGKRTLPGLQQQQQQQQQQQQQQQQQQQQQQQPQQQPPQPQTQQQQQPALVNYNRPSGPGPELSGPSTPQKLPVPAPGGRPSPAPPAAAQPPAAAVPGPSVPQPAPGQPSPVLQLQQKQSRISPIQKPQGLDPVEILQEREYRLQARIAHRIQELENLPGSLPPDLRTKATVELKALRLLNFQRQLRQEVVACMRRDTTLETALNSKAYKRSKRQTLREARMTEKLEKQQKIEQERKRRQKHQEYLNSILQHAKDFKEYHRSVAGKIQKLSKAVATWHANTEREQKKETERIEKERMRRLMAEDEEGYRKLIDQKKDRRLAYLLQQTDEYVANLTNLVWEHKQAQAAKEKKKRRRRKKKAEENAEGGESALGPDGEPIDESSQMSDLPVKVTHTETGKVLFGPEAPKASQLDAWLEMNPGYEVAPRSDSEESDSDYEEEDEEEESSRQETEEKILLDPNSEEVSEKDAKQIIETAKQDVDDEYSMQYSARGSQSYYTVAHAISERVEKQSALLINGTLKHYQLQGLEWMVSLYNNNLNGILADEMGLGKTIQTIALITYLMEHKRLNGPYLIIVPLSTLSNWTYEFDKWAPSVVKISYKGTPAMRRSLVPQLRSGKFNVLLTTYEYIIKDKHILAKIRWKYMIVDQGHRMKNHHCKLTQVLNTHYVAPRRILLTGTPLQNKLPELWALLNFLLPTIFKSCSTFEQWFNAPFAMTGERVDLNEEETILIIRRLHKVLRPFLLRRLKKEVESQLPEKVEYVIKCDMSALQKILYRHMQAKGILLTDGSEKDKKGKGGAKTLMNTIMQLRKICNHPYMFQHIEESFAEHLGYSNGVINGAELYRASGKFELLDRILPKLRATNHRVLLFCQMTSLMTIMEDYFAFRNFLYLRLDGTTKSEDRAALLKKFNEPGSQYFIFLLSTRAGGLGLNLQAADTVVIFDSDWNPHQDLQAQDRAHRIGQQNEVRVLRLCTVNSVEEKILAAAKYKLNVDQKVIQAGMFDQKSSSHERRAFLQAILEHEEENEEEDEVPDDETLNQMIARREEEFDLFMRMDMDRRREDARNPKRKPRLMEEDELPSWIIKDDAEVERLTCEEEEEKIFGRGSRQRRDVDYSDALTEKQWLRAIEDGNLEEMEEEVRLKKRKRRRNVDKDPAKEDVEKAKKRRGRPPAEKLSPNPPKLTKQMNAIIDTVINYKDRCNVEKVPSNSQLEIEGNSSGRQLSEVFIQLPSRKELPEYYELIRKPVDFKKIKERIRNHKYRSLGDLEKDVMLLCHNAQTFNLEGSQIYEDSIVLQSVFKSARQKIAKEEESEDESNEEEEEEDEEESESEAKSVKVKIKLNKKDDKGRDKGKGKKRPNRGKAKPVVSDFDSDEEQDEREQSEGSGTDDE
Quantity Name: Kd

{"columns": ["Structure String", "Quantity Name", "Reported Value"],
 "data": [
  ["O=C(Nc1ccnc(Cl)c1)Nc1cc(C(F)F)ns1", "Kd", "> 10 µM"]
]}

* * *

Property: log10(IC50); scope: individual compounds
target: SWI/SNF-related matrix-associated actin-dependent regulator of chromatin subfamily A member 2 (Homo sapiens); assay: Inhibition of recombinant His10-tagged ZZ-HCV3C-BRM ATPase-SnAC (636 to 1331 residues) (unknown origin) expressed in insect sf9 cells preincubated for 5 mins followed by pCMV-dR8.91 plasmid and ATP addition measured after 60 mins by ADP-Glo assay
Quantity Name: log10(IC50) (log10 of the value in nM)

{"columns": ["Structure String", "log10(IC50)"],
 "data": [
  ["Cc1csc(NC(=O)Nc2ccnc(Cl)c2)n1", 2.99],
  ["O=C(Nc1ccnc(Cl)c1)Nc1ccnc(C(F)(F)F)c1", 1.78],
  ["O=C(Nc1ccnc(Cl)c1)Nc1ccccn1", 3.58],
  ["Cc1cc(NC(=O)Nc2ccnc(Cl)c2)ccn1", 2.30],
  ["O=C(Nc1ccnc(Cl)c1)Nc1ccnc(C(F)F)c1", 2.04],
  ["O=C(Nc1ccncc1)Nc1ccnc(Cl)c1", 3.04]
]}

* * *

molecular target: SWI/SNF-related matrix-associated actin-dependent regulator of chromatin subfamily A member 2 (Homo sapiens); assay: Inhibition of recombinant His10-tagged ZZ-HCV3C-BRM ATPase-SnAC (636 to 1331 residues) (unknown origin) expressed in insect sf9 cells preincubated for 5 mins followed by pCMV-dR8.91 plasmid and ATP addition measured after 60 mins by ADP-Glo assay

{"columns": ["Structure String", "IC50"],
 "data": [
  ["Nc1cnc(F)cc1NC(=O)Nc1cc(C(F)F)ns1", "< 5 nM"],
  ["Nc1cnc(Cl)cc1NC(=O)Nc1cc(C(F)F)ns1", "< 5 nM"],
  ["Cc1c[nH]c(NC(=O)Nc2ccnc(Cl)c2)n1", "> 50000 nM"],
  ["O=C(Nc1cc(C(F)F)ns1)Nc1cc(Cl)ncc1CO", "< 5 nM"],
  ["O=C(Nc1cc(C(F)F)ns1)Nc1cc(F)ncc1CO", "< 5 nM"]
]}
